Biological target: Cytochrome P450 1A2 (Homo sapiens) (UniProt P05177)
Sequence (P05177 whole entry, looked up): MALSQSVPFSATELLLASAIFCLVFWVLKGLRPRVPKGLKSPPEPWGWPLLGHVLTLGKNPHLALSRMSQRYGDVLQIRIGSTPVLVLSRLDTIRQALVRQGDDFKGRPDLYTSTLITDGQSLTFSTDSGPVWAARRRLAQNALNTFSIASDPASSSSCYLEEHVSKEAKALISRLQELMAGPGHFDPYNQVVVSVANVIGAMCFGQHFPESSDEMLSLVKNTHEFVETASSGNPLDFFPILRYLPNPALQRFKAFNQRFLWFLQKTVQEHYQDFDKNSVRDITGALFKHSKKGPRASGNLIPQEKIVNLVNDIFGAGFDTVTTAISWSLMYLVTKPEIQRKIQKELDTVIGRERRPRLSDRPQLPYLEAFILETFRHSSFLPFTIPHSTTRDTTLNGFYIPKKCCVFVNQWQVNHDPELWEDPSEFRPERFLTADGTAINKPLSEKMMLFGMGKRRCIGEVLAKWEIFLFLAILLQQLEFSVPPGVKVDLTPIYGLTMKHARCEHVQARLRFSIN
Assay: Cytochrome panel assay with activity outcomes
Conditions: recombinant CYP, pro-luciferin dealkylation, luminescence, p450-cyp1a2; series mostly up to 57.1 µM
In all, about 16,000 compounds went through this assay and about 5,700 (36%) were called active. Not shown: some 24% with an inconclusive outcome. The call rests on the fitted dose curve; in most records, active means well fitted curve in the direction sought with a large enough effect; inconclusive means small, poorly fitted or top-dose-only effect, or effect the other way; inactive means no such curve, though single readings can be large or run the other way. This is one part of the list.
Classes used: 1 (yes) for active, 0 (no) for inactive

{"Compound": "O=C1CC(c2cccs2)c2cc3c(cc2N1)OCO3 (stereo unspecified)", "Classification": "1 (yes)"}
{"Compound": "CN1CCN(c2ncc3ncc(=O)n(C[C@H]4CCCO4)c3n2)CC1", "Classification": "1 (yes)"}
{"Compound": "CC(=O)Nc1sc2c(c1C(N)=O)CCCC2", "Classification": "1 (yes)"}
{"Compound": "COc1ccccc1OCC(=O)N/N=C1/SCC(=O)N1Cc1ccccc1", "Classification": "1 (yes)"}
{"Compound": "CC1(C)CC2(CC(c3cccs3)c3cc(Cl)c(O)cc3O2)NC(=S)N1 (stereo unspecified)", "Classification": "0 (no)"}
{"Compound": "CCn1cc(C(=O)O)c(=O)c2cnc(N3CCNCC3)nc21", "Classification": "0 (no)"}
